// % Encapsulation (Ribogreen) lookup, one value per entry
Experiment: Encapsulation of mRNA nanoparticles with lipid amines using Ribogreen assay
Format: physicochemical
Conditions: Luciferase mRNA nanoparticle modified with lipid amine
Experimental: Lipids are dissolved in ethanol at a concentration of 24 mg/mL and molar ratios of 49.0:11.2:39.3:0.5 (IL1:DSPC:cholesterol:PEG-DMG-2K) and mixed with the acidification buffer (45 mM acetate buffer at pH 4). The lipid solution and acidification buffer are mixed using a multi-inlet vortex mixer at a 3:7 volumetric ratio of lipid:buffer for mixer 1 and mixer 2 and a 1:3 volumetric ratio of lipid:buffer (25% ethanol) for mixer 3. […]
Structures can show the parent of a compound that is named as a salt.
READOUT KIND: % Encapsulation (Ribogreen) (%)

>  <MOLECULE>
CC[C@H](CC[C@@H](C)[C@H]1CC[C@H]2[C@@H]3CC=C4C[C@@H](OC(=O)CN(CCCN)CCCCNCCCN)CC[C@]4(C)[C@H]3CC[C@]12C)C(C)C [SA119]

>  <TEST RESULT>
99.4

$$$$
>  <MOLECULE>
CC[C@H](CC[C@@H](C)[C@H]1CC[C@H]2[C@@H]3CC=C4C[C@@H](OC(=O)N(CCCC(C)(C)N)CCC(C)(C)N)CC[C@]4(C)[C@H]3CC[C@]12C)C(C)C [SA149, dihydrochloride]

>  <TEST RESULT>
99.5

$$$$
>  <MOLECULE>
CC[C@H](CC[C@@H](C)[C@H]1CC[C@H]2[C@@H]3CC=C4C[C@@H](OC(=O)N(CCCCNC(C)CCN)C(C)CCN)CC[C@]4(C)[C@H]3CC[C@]12C)C(C)C (some centres unmarked) [SA113, trihydrochloride]

>  <TEST RESULT>
99.7

$$$$
>  <MOLECULE>
CC(C)CCC[C@@H](C)[C@H]1CC[C@H]2[C@@H]3CC=C4C[C@@H](OC(=O)N(CCCN)CCCCCCN)CC[C@]4(C)[C@H]3CC[C@]12C [SA83, dihydrochloride]

>  <TEST RESULT>
99.3

$$$$
>  <MOLECULE>
CC(C)CCC[C@@H](C)[C@H]1CC[C@H]2[C@@H]3CC=C4C[C@@H](SSCCC(=O)N(CCCCNCCC(C)(C)N)CCC(C)(C)N)CC[C@]4(C)[C@H]3CC[C@]12C.Cl.Cl.Cl [SA138]

>  <TEST RESULT>
99.2

$$$$

All values here come from patent US20260109732A1.
